- Test system: RPMI-8226 leukemia
- test-name: NCI-60 one-dose screen, 48 h (100 = growth as untreated, 0 = no growth, -100 = all killed)
- assay-setup: 10 µM
Compounds without any hit were thinned out: in the full panel of roughly 83,000, 20% have a hit.
Entries and their growth

| compound | growth [%] |
| --- | --- |
| COc1cccc(C2C3=C(COC3=O)N(CCO)c3cc4c(cc32)CCC4)c1 (stereo unspecified) | 28.1 |
| NS(=O)(=O)c1cc(Br)c2c(c1)S(=O)(=O)NCN2 | 106 |
| CCC(C)Oc1cc(/C=N/NC(=O)c2cnn3c2NC(c2ccccc2)C3)ccc1OC (stereo unspecified) | 45.7 |
| Nc1nc(N)c(N=Nc2c(Br)cc(S(N)(=O)=O)cc2Br)c(N)n1 | 106 |
| COC(=O)c1ccc(C(=O)Nc2ccccc2N)cc1 | 12.6 |
| Cc1ccc2c(N/N=C\c3ccco3)cc(C)nc2n1 | 64.7 |
| C[C@@H](Oc1cc(-c2cnn(C3CC4(CNC4)C3)c2)cnc1N)c1c(Cl)ccc(F)c1Cl | 27.7 |
| COc1ccc(OC2=CC(=O)c3ccc(C)nc3C2=O)cc1 | 79.7 |
| COc1ccc(/C=C(\C#N)c2ccc(OC)cc2)cc1 | 55.8 |
| Cc1ccc(C2SCC(=O)N2NC(=O)c2[nH]c3ccc(F)cc3c2-c2ccccc2)cc1 (stereo unspecified) | 86.7 |
| CN1CCN(C(=O)OCCOCCOC(=O)N2CCN(C)CC2)CC1 | 81 |

Where these numbers come from: PubChem BioAssay (NCI)
